# microsomal CLint listing for each entry below
Assay: Metabolic stability in human liver microsomes assessed as intrinsic clearance at 0.2 mg/ml incubated for 60 mins by UPLC/MS-MS analysis
Type: ADME, Microsome
Conditions: read-out: CLH
OUTCOME_MEASURE: microsomal CLint

| COMPOUND | MEASURED_VALUE |
| --- | --- |
| O=C(NCc1cccc(C(F)(F)F)c1Cl)[C@@H]1CCC(=O)N1c1cccs1 | 530 µL/min/mg |
| CN1C(=O)CC[C@H]1C(=O)NCc1ccc(Cl)cc1Cl | 3.6 µL/min/mg |
| CN1C(=O)CC[C@H]1C(=O)NCc1cccc(C(F)(F)F)c1Cl | 2.8 µL/min/mg |
| O=C(NCc1ccc(Cl)cc1Cl)[C@@H]1CCC(=O)N1c1ccco1 | 411 µL/min/mg |
| O=C(NCc1ccc(Cl)cc1Cl)[C@@H]1CCC(=O)N1c1ccsc1 | 762 µL/min/mg |
| O=C(NCc1ccc(Cl)cc1Cl)[C@@H]1CCC(=O)N1c1nccs1 | 253 µL/min/mg |
| O=C(NCc1ccc(Cl)cc1Cl)[C@@H]1CCC(=O)N1c1ccoc1 | 630 µL/min/mg |
| O=C(NCc1ccc(Cl)cc1Cl)[C@@H]1CCC(=O)N1c1cccs1 | 1070 µL/min/mg |
| O=C(NCc1ccc(Cl)cc1Cl)[C@@H]1CCC(=O)N1c1cscn1 | 379 µL/min/mg |
| O=C(NCc1ccc(Cl)cc1Cl)[C@@H]1COC(=O)N1c1cccs1 | 663 µL/min/mg |
